Give IC50 for every item shown.
# target_system: Nanoluciferase-BRD9 fusion protein (3×FLAG-NLuc-BRD9) in SYO-1 cells (Homo sapiens (Human))
# Sequence (Q9H8M2 whole entry, the tested form may be a part): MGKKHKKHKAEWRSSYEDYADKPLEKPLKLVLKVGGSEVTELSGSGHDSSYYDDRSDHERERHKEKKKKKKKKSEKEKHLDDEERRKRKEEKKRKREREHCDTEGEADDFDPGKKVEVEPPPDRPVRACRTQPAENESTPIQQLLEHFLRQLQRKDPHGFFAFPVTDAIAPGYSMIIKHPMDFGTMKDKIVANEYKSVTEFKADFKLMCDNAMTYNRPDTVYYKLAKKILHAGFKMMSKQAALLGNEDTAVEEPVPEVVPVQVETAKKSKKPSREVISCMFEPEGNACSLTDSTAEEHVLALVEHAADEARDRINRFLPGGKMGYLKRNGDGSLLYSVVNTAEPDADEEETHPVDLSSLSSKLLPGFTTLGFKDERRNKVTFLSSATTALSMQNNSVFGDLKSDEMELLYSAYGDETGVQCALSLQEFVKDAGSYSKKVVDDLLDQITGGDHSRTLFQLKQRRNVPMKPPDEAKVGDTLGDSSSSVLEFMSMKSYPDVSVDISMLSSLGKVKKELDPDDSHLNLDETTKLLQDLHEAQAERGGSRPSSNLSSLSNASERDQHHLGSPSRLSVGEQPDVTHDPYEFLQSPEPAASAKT
# test_method_notes: SYO1 BRD9 NanoLuc degradation assay
# Format: cell-based
# run_conditions: SYO-1 cells expressing 3×FLAG-NLuc-BRD9, 6 hours incubation, top dose 1 μM

Query: // IC50 lookup, key: CNC(=O)N1CCc2c(-c3cc(OC)c(CN4CCC(CN5CCN(c6ccc7c(c6)C(=O)N(C6CCC(=O)NC6=O)C7=O)CC5)CC4)c(OC)c3)cn(C)c(=O)c2C1 (centres unmarked)
Result: < 10 nM

Query: Follow-up item: CNC(=O)N1CCc2c(-c3cc(OC)c(CN4CC5(CCC(N6Cc7cc8c(cc7C6)C(=O)N(C6CCC(=O)NC6=O)C8=O)CC5)C4)c(OC)c3)cn(C)c(=O)c2C1 (centres unmarked)
Result: 10 to 100 nM

Query: Follow-up item: COc1cc(-c2cn(C)c(=O)c3c2CCN(C(=O)NC2CCC4CN(CCCOc5ccc6c(c5)C(=O)N(C5CCC(=O)NC5=O)C6=O)CC42)C3)cc(OC)c1CN(C)C (centres unmarked)
Result: 100 to 1000 nM

Query: Follow-up item: CNC(=O)N1CCc2c(-c3cc(OC)c(CN4CCC5(CC4)CN(CCCCOc4ccc6c(c4)C(=O)N(C4CCC(=O)NC4=O)C6=O)CCO5)c(OC)c3)cn(C)c(=O)c2C1 (centres unmarked)
Result: < 10 nM

Query: Follow-up item: CNC(=O)N1CCc2c(-c3cc(OC)c(CN4CCC5(CC4)CN(C(=O)CCCOc4ccc6c(c4)C(=O)N(C4CCC(=O)NC4=O)C6=O)CCO5)c(OC)c3)cn(C)c(=O)c2C1 (centres unmarked)
Result: 10 to 100 nM

Query: Follow-up item: COc1cc(-c2cn(C)c(=O)c3c2CCN(C(=O)NC2CC4(C2)CN(CCCOc2ccc5c(c2)C(=O)N(C2CCC(=O)NC2=O)C5=O)C4)C3)cc(OC)c1CN(C)C (centres unmarked)
Result: 100 to 1000 nM

Query: Follow-up item: CNC(=O)N1CCc2c(-c3cc(OC)c(CN4CCC(CCN5CCN(c6ccc7c(c6)C(=O)N(C6CCC(=O)N(COC(=O)OC(C)C)C6=O)C7=O)CC5)CC4)c(OC)c3)cn(C)c(=O)c2C1 (centres unmarked)
Result: < 10 nM

Query: Follow-up item: COc1cc(-c2cn(C)c(=O)c3c2CCN(C(=O)NC2CCC24CCN(CCCOc2ccc5c(c2)C(=O)N(C2CCC(=O)NC2=O)C5=O)CC4)C3)cc(OC)c1CN(C)C (centres unmarked)
Result: ≥ 1000 nM

Query: Follow-up item: COc1cc(-c2cn(C)c(=O)c3c2CCN(C(=O)NC2CC4(C2)CN(CCOc2ccc5c(c2)C(=O)N(C2CCC(=O)NC2=O)C5=O)C4)C3)cc(OC)c1CN(C)C (centres unmarked)
Result: ≥ 1000 nM

Query: Follow-up item: CNC(=O)N1CCc2c(-c3cc(OC)c(CN4CCN(CCC5CCN(c6ccc7c(c6)C(=O)N(C6CCC(=O)NC6=O)C7=O)CC5)C(C#N)C4)c(OC)c3)cn(C)c(=O)c2C1 (centres unmarked)
Result: < 10 nM

Query: Follow-up item: CNC(=O)N1CCc2c(-c3cc(OC)c(CN4CCC(CN(C(C)C)C5CC(Oc6ccc7c(c6)C(=O)N(C6CCC(=O)NC6=O)C7=O)C5)CC4)c(OC)c3)cn(C)c(=O)c2C1 (centres unmarked)
Result: < 10 nM

Query: Follow-up item: "CNC(=O)N1CCc2c(-c3cc(OC)c(CN4CCC(CCN5CCN(C67CC8CC(CC(C8)C6)C7)CC5)CC4)c(OC)c3)cn(C)c(=O)c2C1"
Result: ≥ 1000 nM

Query: Follow-up item: CNC(=O)N1CCc2c(-c3cc(OC)c(CN4CCC(CCN5CCN(c6cc7c(c(F)c6F)CN(C6CCC(=O)NC6=O)C7=O)CC5)CC4)c(OC)c3)cn(C)c(=O)c2C1 (centres unmarked)
Result: 10 to 100 nM

Query: Follow-up item: CNC(=O)N1CCc2c(-c3cc(OC)c(CN4CC(S(=O)(=O)NCCCCOc5cccc6c5C(=O)N(C5CCC(=O)NC5=O)C6=O)C4)c(OC)c3)cn(C)c(=O)c2C1 (centres unmarked)
Result: 10 to 100 nM

Query: Follow-up item: CNC(=O)N1CCc2c(-c3cc(OC)c(CN(C)CC45CC(C(=O)NCCCCCOc6cccc7c6C(=O)N(C6CCC(=O)NC6=O)C7=O)(C4)C5)c(OC)c3)cn(C)c(=O)c2C1 (centres unmarked)
Result: 100 to 1000 nM

Query: Follow-up item: CNC(=O)N1CCc2c(-c3cc(OC)c(CN4CCC(CCN5CCCN(c6ccc7c(c6)C(=O)N(C6CCC(=O)NC6=O)C7=O)CC5)CC4)c(OC)c3)cn(C)c(=O)c2C1 (centres unmarked)
Result: < 10 nM

Query: Follow-up item: CNC(=O)N1CCc2c(-c3cc(OC)c(CN4CCC(CCN5Cc6cc7c(cc6C5)C(=O)N(C5CCC(=O)NC5=O)C7=O)CC4)c(OC)c3)cn(C)c(=O)c2C1 (centres unmarked)
Result: < 10 nM

Query: Follow-up item: CNC(=O)N1CCc2c(-c3cc(OC)c(CN4CC(CC(=O)N5CCC6(CC5)CC(Oc5ccc7c(c5)C(=O)N(C5CCC(=O)NC5=O)C7=O)C6)C4)c(OC)c3)cn(C)c(=O)c2C1 (centres unmarked)
Result: 10 to 100 nM

Query: Follow-up item: CNC(=O)N1CCc2c(-c3cc(OC)c(CN4CC(CCCN5CCN(c6ccc7c(c6)C(=O)N(C6CCC(=O)NC6=O)C7=O)CC5)C4)c(OC)c3)cn(C)c(=O)c2C1 (centres unmarked)
Result: ≥ 1000 nM

Query: Follow-up item: COc1cc(-c2cn(C)c(=O)c3c2CCN(C(=O)NCCCN2CCC(OC4CCN(c5ccc6c(c5)C(=O)N(C5CCC(=O)NC5=O)C6=O)CC4)CC2)C3)cc(OC)c1CN(C)C (centres unmarked)
Result: 10 to 100 nM
